- tested-target: CYP3A4 (Homo sapiens)
- Construct: purchased BD GenTest, Woburn, Mass
- Sequence (P08684 whole entry): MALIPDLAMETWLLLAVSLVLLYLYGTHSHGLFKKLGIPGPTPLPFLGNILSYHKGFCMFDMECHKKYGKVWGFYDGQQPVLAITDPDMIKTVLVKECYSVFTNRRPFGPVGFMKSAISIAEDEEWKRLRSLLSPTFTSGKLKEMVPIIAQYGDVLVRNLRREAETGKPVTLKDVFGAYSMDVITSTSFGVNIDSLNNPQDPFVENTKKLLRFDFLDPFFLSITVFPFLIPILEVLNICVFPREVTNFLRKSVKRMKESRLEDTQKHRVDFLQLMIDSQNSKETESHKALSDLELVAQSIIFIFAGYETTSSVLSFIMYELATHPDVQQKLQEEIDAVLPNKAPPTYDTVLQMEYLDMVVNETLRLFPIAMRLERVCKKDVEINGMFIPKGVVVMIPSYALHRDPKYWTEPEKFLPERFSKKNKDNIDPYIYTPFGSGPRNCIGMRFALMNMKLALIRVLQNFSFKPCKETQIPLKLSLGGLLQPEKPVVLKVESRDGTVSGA
- test-description: Cytochrome P450 inhibition (BD GenTest kit, BFC substrate), CYP3A4
- Assay type: in vitro ADME
IC50 vs 2000 nM: less than gives class 1; not less than gives class 0.

Confirm or reject: IC50 of C/C1=C/C[C@@H](/C(C)=C/c2csc(CO)n2)OC(=O)C[C@H](O)C(C)(C)C(=O)[C@H](C)[C@@H](O)[C@@H](C)/C=C/C1 [21-OH 9,10-dehydroepothilone D, 21-hydroxy-9,10-dehydro-epothilone D] lies strictly below 2000 nM
class 1

Below 2000 nM on IC50? Entry `C/C1=C/C[C@@H](/C(C)=C/c2nc3ccccc3s2)OC(=O)C[C@H](O)C(C)(C)C(=O)[C@H](C)[C@@H](O)[C@@H](C)/C=C/C1`
class 0

IC50 strictly < 2000 nM for this molecule? `C/C(=C\c1csc(CO)n1)[C@@H]1C/C=C(/C(F)(F)F)C/C=C/[C@H](C)[C@H](O)[C@@H](C)C(=O)C(C)(C)[C@@H](O)CC(=O)O1`
class 1

is_below(IC50, 2000 nM) for `C/C1=C/C[C@@H](/C(C)=C/c2ccccn2)OC(=O)C[C@H](O)C(C)(C)C(=O)[C@H](C)[C@@H](O)[C@@H](C)/C=C/C1` ?
class 0

Is the reported IC50 for C/C1=C/C[C@@H](/C(C)=C/c2csc(C)n2)OC(=O)C[C@H](O)C(C)(C)C(=O)[C@H](C)[C@@H](O)[C@@H](C)/C=C/C1 (relative stereo) [9,10-dehydroepothilone D, trans-9,10-dehydroepothilone D] strictly below 2000 nM?
class 1

Item C/C1=C/C[C@@H](/C(C)=C/c2csc(CN)n2)OC(=O)C[C@H](O)C(C)(C)C(=O)[C@H](C)[C@@H](O)[C@@H](C)/C=C/C1 [21-NH2 9,10-dehydroepothilone D, 21-amino-9,10-dehydro-epothilone D] : IC50 beneath 2000 nM, strictly?
class 1

Consider the molecule C/C1=C/C[C@@H](/C(C)=C/c2csc(C)n2)OC(=O)C[C@H](O)C(C)(C)C(=O)[C@H](C)[C@@H](O)[C@@H](C)CCC1 [Epothilone D, Desoxyepothilone B, reference compound] . Is its IC50 strictly less than 2000 nM?
class 0

----------
- test-description: Compound solubility in phosphate-buffered saline
- Assay type: physicochemical
- run-parameters: aqueous buffer, kinetic from dmso stock; 5 μL of 20 mg/mL DMSO stock in 95 μL phosphate-buffered saline, 0.45 micron filter, HPLC
Give measured solubility for each item. Keep answers brief.

Would you mind telling me what solubility value was observed for C/C1=C/C[C@@H](/C(C)=C/c2csc(CO)n2)OC(=O)C[C@H](O)C(C)(C)C(=O)[C@H](C)[C@@H](O)[C@@H](C)/C=C/C1 [21-OH 9,10-dehydroepothilone D, 21-hydroxy-9,10-dehydro-epothilone D] ?
100 µg/mL

// lookup solubility for `C/C(=C\c1csc(CN)n1)[C@@H]1C/C=C(/C(F)(F)F)C/C=C/[C@H](C)[C@H](O)[C@@H](C)C(=O)C(C)(C)[C@@H](O)CC(=O)O1`
> 600 µg/mL

Can you look up the measured solubility of C/C1=C/C[C@@H](/C(C)=C/c2csc(C)n2)OC(=O)C[C@H](O)C(C)(C)C(=O)[C@H](C)[C@@H](O)[C@@H](C)/C=C/C1 (relative stereo) [9,10-dehydroepothilone D, trans-9,10-dehydroepothilone D] for me?
< 60 µg/mL

// query solubility value for entry `C/C1=C/C[C@@H](/C(C)=C/c2nc3ccccc3s2)OC(=O)C[C@H](O)C(C)(C)C(=O)[C@H](C)[C@@H](O)[C@@H](C)/C=C/C1`
< 20 µg/mL

Give its solubility value. Item: C/C1=C/C[C@@H](/C(C)=C/c2csc(C)n2)OC(=O)C[C@H](O)C(C)(C)C(=O)[C@H](C)[C@@H](O)[C@@H](C)CCC1 [Epothilone D, Desoxyepothilone B, reference compound]
< 60 µg/mL

Need solubility of C/C1=C/C[C@@H](/C(C)=C/c2csc(CN)n2)OC(=O)C[C@H](O)C(C)(C)C(=O)[C@H](C)[C@@H](O)[C@@H](C)/C=C/C1 [21-NH2 9,10-dehydroepothilone D, 21-amino-9,10-dehydro-epothilone D] , thanks.
> 600 µg/mL

Given `C/C1=C/C[C@@H](/C(C)=C/c2ccccn2)OC(=O)C[C@H](O)C(C)(C)C(=O)[C@H](C)[C@@H](O)[C@@H](C)/C=C/C1` , state its recorded solubility.
120 µg/mL

# input molecule: `C/C(=C\c1csc(CO)n1)[C@@H]1C/C=C(/C(F)(F)F)C/C=C/[C@H](C)[C@H](O)[C@@H](C)C(=O)C(C)(C)[C@@H](O)CC(=O)O1` ; wanted: its solubility
100 µg/mL

Sample C/C(=C\c1csc(C)n1)[C@@H]1C/C=C(/C(F)(F)F)C/C=C/[C@H](C)[C@H](O)[C@@H](C)C(=O)C(C)(C)[C@@H](O)CC(=O)O1 (relative stereo) [26-trifluoro 9,10-dehydroepothilone D, reference compound] — what was its solubility?
< 60 µg/mL
